- TESTED_TARGET: Vasopressin V2 receptor (Homo sapiens, UniProt P30518)
- Sequence (P30518 whole entry): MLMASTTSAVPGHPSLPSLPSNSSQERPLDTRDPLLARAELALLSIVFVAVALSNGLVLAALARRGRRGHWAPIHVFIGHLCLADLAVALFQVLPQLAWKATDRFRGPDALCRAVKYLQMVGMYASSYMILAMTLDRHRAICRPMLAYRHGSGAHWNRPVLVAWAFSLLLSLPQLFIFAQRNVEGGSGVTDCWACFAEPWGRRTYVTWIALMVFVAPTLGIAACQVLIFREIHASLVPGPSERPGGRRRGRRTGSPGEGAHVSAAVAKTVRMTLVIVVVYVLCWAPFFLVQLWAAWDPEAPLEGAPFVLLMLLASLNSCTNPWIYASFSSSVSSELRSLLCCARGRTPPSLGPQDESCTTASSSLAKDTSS
- ASSAY_PROTOCOL: Displacement of [3H]AVP from human vasopressin V2-receptor expressed in murine fibroblast cell (LV2) membranes
pIC50: −log10 of the molar value.
Measured pIC50, listed per entry for reference.
OBSERVED_PROPERTY: pIC50

INSERT INTO assay_data (entry_smiles, observed_value) VALUES
  ('CN(C)Cc1ccc2n1Cc1ccccc1N(C(=O)c1ccc(NC(=O)c3ccccc3-c3ccccc3)cc1O)C2', 7.83),
  ('CN(C)CCN(C)Cc1ccc2n1Cc1ccccc1N(C(=O)c1ccc(NC(=O)c3ccccc3-c3ccccc3)cc1Cl)C2', 8.59),
  ('CN1CCN(Cc2ccc3n2Cc2ccccc2N(C(=O)c2ccc(NC(=O)c4ccccc4-c4ccccc4)cc2Cl)C3)CC1', 8.89),
  ('O=C(Nc1ccc(C(=O)N2Cc3ccc(CN4CCC(N5CCCCC5)CC4)n3Cc3ccccc32)c(Cl)c1)c1ccccc1-c1ccccc1', 8.68),
  ('COc1cc(C(=O)N2Cc3ccc(CN(C)C)n3Cc3ccccc32)ccc1NC(=O)c1ccccc1-c1ccccc1', 8.28),
  ('CN(C)Cc1ccc2n1Cc1ccccc1N(C(=O)c1ccc(NC(=O)c3ccccc3-c3ccccc3)cc1Cl)C2', 8.12),
  ('CN(C)C1CCN(C(=O)c2ccc3n2Cc2ccccc2N(C(=O)c2ccc(NC(=O)c4ccccc4-c4ccccc4)cc2Cl)C3)CC1', 8.06),
  ('COc1cc(NC(=O)c2ccccc2-c2ccccc2)ccc1C(=O)N1Cc2ccc(CN3CCN(C)CC3)n2Cc2ccccc21', 8.15),
  ('CN(C)C1CCN(Cc2ccc3n2Cc2ccccc2N(C(=O)c2ccc(NC(=O)c4ccccc4-c4ccccc4)cc2Cl)C3)CC1', 8.70);
